This collection of values is drawn from patent US20260258084A1.

Listing of entries alongside the reported remaining at 1 h, 1 µM.
Tested on: Pancreatin
Assay: Protease stability in simulated intestinal fluid (Pancreatin-SIF, FaSSIF)
Format: in vitro ADME
Details: 60 min, 1 μM peptide, 37° C., read-out: FaSSIF 60 (min), remaining percent of peptide
Starred links: 1 amine or outer side, 2 acyl side, 3 side chain; linkers in the order of their positions; H or OH if unused. Positions of bridges follow the written chain, without caps; N, C: chain ends. Non-standard residues stand in square brackets, D forms with d. Residues, ends and D or L forms follow the SMILES beside them. X3 = CN(CCCCC(=O)N[C@@H](CS[*:2])C(=O)[*:1])[*:3]; 2Nal = N[C@@H](Cc1ccc2ccccc2c1)C(=O)O; AEF = NCCOc1ccc(C[C@H](N)C(=O)O)cc1; NMeN = CN[C@@H](CC(N)=O)C(=O)O; Thp = NC1(C(=O)O)CCOCC1; Aib = CC(C)(N)C(=O)O; Ahx = NCCCCCC(=O)O
Please give a number only; it is taken to be in %.

# example entries with known answers
[
  {
    "compound": "CC(=O)N[C@H]1CCCCNC(=O)[C@@H]2CSSC[C@H](NC(=O)[C@H](CCC(N)=O)NC(=O)[C@H](Cc3c[nH]c4ccccc34)NC1=O)C(=O)N[C@@H](Cc1ccc(OCCN)cc1)C(=O)N[C@@H](Cc1ccc3ccccc3c1)C(=O)NC1(CCOCC1)C(=O)N[C@H](C(=O)N[C@@H](CC(N)=O)C(=O)N[C@@H](CC(N)=O)C(N)=O)CCC(=O)N(C)CCCCC(=O)N2 [compound 13] (Ac-KWQC[AEF][2Nal][Thp]ENN-NH2; linker 1-4-8 via X3)",
    "recorded_measurement": 83
  },
  {
    "compound": "CC(=O)NCCCC[C@@H]1NC(=O)[C@H](Cc2c[nH]c3c(C)cccc23)NC(=O)[C@H]([C@@H](C)O)NC(=O)[C@H](CC(N)=O)NC(=O)[C@@H]2CSSC[C@H](NC1=O)C(=O)N[C@@H](Cc1ccc(OCCN(C)C)cc1)C(=O)N[C@H](Cc1ccc3ccccc3c1)C(=O)NC1(CCOCC1)C(=O)N[C@H](C(=O)N[C@@H](CC(N)=O)C(=O)N[C@@H](Cc1cccnc1)C(=O)N(C)CC(N)=O)CCC(=O)NCCCCC(=O)N2 [compound 35]",
    "recorded_measurement": 91
  },
  {
    "compound": "C[C@@H](O)[C@@H]1NC(=O)[C@H](CC(N)=O)NC(=O)[C@@H]2CSSC[C@H](NC(=O)[C@H](CCC(N)=O)NC(=O)[C@H](Cc3c[nH]c4ccccc34)NC1=O)C(=O)N[C@@H](Cc1ccc(OCCN)cc1)C(=O)N[C@H](Cc1ccc3ccccc3c1)C(=O)NC(C)(C)C(=O)N[C@H](C(=O)N[C@@H](CC(N)=O)C(=O)N[C@@H](CC(N)=O)C(N)=O)CCC(=O)NCCCCC(=O)N2 [compound 5]",
    "recorded_measurement": 94
  }
]

Report remaining at 1 h, 1 µM for COc1ccc(C[C@@H]2NC(=O)[C@@H]3CSSC[C@H](NC(=O)CCCCCNC(=O)C[C@@H](C(=O)N[C@@H](CC(N)=O)C(=O)N[C@@H](CC(N)=O)C(N)=O)NC(=O)C(C)(C)NC(=O)[C@H](Cc4ccc5ccccc5c4)NC2=O)C(=O)N(C)[C@@H](CC(N)=O)C(=O)N[C@@H]([C@@H](C)O)C(=O)N[C@@H](Cc2c[nH]c4ccccc24)C(=O)N[C@@H](CCC(N)=O)C(=O)N3)cc1 [compound 6] ([Ahx]C[NMeN]TWQCY(Me)[2Nal][Aib]DNN-NH2; disulfide 2-7; lactam N-11) please.
78

Likewise for COc1ccc(C[C@@H]2NC(=O)[C@@H]3CSSC[C@H](NC(=O)CCCCCNC(=O)C[C@@H](C(=O)N[C@@H](CC(N)=O)C(=O)N[C@@H](CC(N)=O)C(N)=O)NC(=O)C(C)(C)NC(=O)[C@H](Cc4ccc5ccccc5c4)NC2=O)C(=O)N[C@@H](CC(N)=O)C(=O)N[C@@H]([C@@H](C)O)C(=O)N[C@@H](Cc2c[nH]c4ccccc24)C(=O)N[C@@H](CCC(N)=O)C(=O)N3)cc1 [compound 3] ([Ahx]CNTWQCY(Me)[2Nal][Aib]DNN-NH2; disulfide 2-7; lactam N-11) ?
76
